Test: small-molecule binders of probe aNOTCH3, primary screen, biochemical, small-molecule microarray, 635/667 nm fluorescence (AID 1120);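 also: probe is a biotin-tagged antibody raised against NOTCH3 rather than NOTCH3 protein; score merges spot fluorescence near 667 nm with spot signal to noise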
Details: higher = more signal
Entries and their composite z-score
Answer with the value's number alone.

What value of composite z-score has been recorded for this entry: O=C1[C@H]2[C@H]3[C@H](O)[C@H](O)CC(=NOC[C@@H](O)COCc4ccco4)[C@@H]3CC[C@H]2C(=O)N1Cc1ccccc1
0.121

Others:
For the compound shown here, C=CC[C@@H]1C=C[C@H](ON=C2C[C@@H](O)[C@@H](O)[C@@H]3[C@@H]4C(=O)N(CC)C(=O)[C@@H]4CC[C@@H]23)[C@@H](CO)O1 , give the reported composite z-score.
-0.16

Same question for O=C1C=C[C@@H](O)[C@@H]2[C@@H]3C(=O)N(c4cccc(Oc5ccccc5)c4)C(=O)[C@@H]3CC[C@@H]12 please.
-0.132

Now consider CCN1C(=O)[C@H]2[C@H]3[C@H](O)[C@H](O)CC(=NO[C@@H]4O[C@H](CO)[C@@H](O)[C@H](O)[C@H]4O)[C@H]3CC[C@H]2C1=O and answer again.
-0.0783

Further, for CCOC(=O)[C@H](CC(C)C)NC(=O)CCC1CC(OC(=O)NCc2ccc3c(c2)OCO3)CC2(CCCC(COC(=O)NCCc3ccccc3OC)O2)O1 (some centres not stated) ?
-0.0328

Ok, now CCCNC(=O)OC[C@H]1O[C@H](CCON=C[C@@H](C)[C@H](OCc2ccccc2)C(C)C)C=C[C@@H]1Oc1ccc(OC)cc1
-0.0308

Try C=CC[C@@H]1C=C[C@H](ON=C(C)CCN2CCCCc3nc(C)c(C)cc32)[C@@H](CO)O1 next.
-0.0304

---

Biological target: Albumin (Bos taurus)
Assay: bovine serum albumin binders on microarray, profiling panel, artefact control for SMM control protein annotation, biochemical, small-molecule microarray, Alexa647 label, 635/667 nm fluorescence (AID 1118);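 also: score merges 667 nm emission intensity and signal-to-noise per printed compound spot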
Conditions: BSA-A647 binding, fluorescence 635 nm, higher = more signal
Quick list: composite z-score per entry.
Number only, no unit.

Name the recorded composite z-score for CC(=O)OC[C@H]1O[C@H](CCON=C(C)C)C=C[C@@H]1OC(C)=O .
0.123

For C[C@@H](c1ccccc1)N1C(=O)[C@H]2[C@H]3[C@H](O)[C@H](O)CC(=NOC[C@@H](O)COCc4ccco4)[C@H]3CC[C@H]2C1=O then?
-0.0559

Queued: COc1cccc([C@H]2Oc3ccc(OC)cc3C(=NO[C@@H](C)c3cc(-c4c(C)cc(C)cc4C)no3)[C@@H]2O)c1
-1.31

Note, next up: Cc1cc2c(nc1C)CCCCN2CC(O)CN1CCCc2nc(-c3ccc(Br)cc3)ccc21 (stereo not given)
0.466

Same for COc1ccc(COC(=O)NN=C2C[C@@H](O)[C@@H](O)[C@@H]3[C@@H]4C(=O)N(Cc5ccccc5)C(=O)[C@@H]4CC[C@@H]23)cc1
-0.0233

Field entry: O=C1[C@H]2[C@H]3[C@H](O)[C@H](O)CC(=NO[C@@H]4O[C@H](CO)[C@@H](O)[C@H](O)[C@H]4O)[C@H]3CC[C@H]2C(=O)N1C[C@@H]1CCCO1
-0.011

Item: O=C1[C@H]2[C@H]3[C@H](O)[C@H](O)CC(=NO[C@@H]4O[C@H](CO)[C@@H](O)[C@H](O)[C@H]4O)[C@H]3CC[C@H]2C(=O)N1c1ccc(F)cc1F
-0.168

Let us now turn to COC(=O)[C@H](C)NC(=O)CCC1CC(OC(=O)NCc2cccc3ccccc23)CC2(CCCC(COC(=O)NCCOc3ccccc3)O2)O1 (stereo not given in full)
0.445

Entry to check: CC(=O)OC[C@H]1O[C@H](C#CCC2CCCCC2)C=C[C@@H]1OC(C)=O
0.718

Also CCN1C(=O)[C@H]2[C@H]3[C@H](O)[C@H](O)CC(=NOC[C@@H](O)COCc4ccco4)[C@H]3CC[C@H]2C1=O ?
0.532

Another compound to look at: CCOC(=O)[C@H](Cc1ccccc1)NC(=O)CCC1CC(OC(=O)NCc2ccc3c(c2)OCO3)CC2(CCCC(COC(=O)NCCc3ccc(Cl)cc3)O2)O1 (stereo not given in full)
0.581

// query: COc1ccc(OC[C@@H]2CC3[C@@H](c4ccc(Br)cc4)[C@H](C)CC[C@H]3C(=O)O2)cc1 (stereo not given in full)
0.733

Can you handle CO[C@H]1COC(=O)[C@H](CCSC)NC(=O)CC=C[C@@H](C)[C@H](OC)COC(=O)[C@@H](OCc2ccccc2)C=C[C@@H]1C next?
-0.798

Please answer likewise for COC(=O)CC=C[C@@H](C)[C@@H](C=NOC(C)CN1CCCCc2nc(C)c(C)cc21)OC (stereo not given in full)
0.276

---

This listing pairs compounds with measured z-score.
Assay: splicing luciferase reporter signal modulators, primary screen, spliceosome inhibition project, cell-based, HEK293, splice +/- reporter (AID 1101);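 also: HEK293 cells carrying a splicing-competent luciferase reporter gene; test concentration not given here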
Settings: luminescence, 24 h, higher = more signal, called active from +8 up or from −8 down
# print the numeric value only

Use these answered entries as a reference point.
So what's the measured z-score for this one? COC(=O)[C@H](Cc1ccccc1)NC(=O)[C@@H](C)CO
-1.36

Another: CC(=O)OC[C@H]1O[C@@H](ON=C(C)C)[C@H](OC(C)=O)[C@@H](OC(C)=O)[C@@H]1OC(C)=O
0.851

// query: CCOC(=O)CCN1C(=O)[C@H]2[C@H]3[C@H](O)[C@H](O)CC(=NO[C@@H]4O[C@H](CO)[C@@H](O)[C@H](O)[C@H]4O)[C@H]3CC[C@H]2C1=O
-0.265

Now this one: CCOC(=O)NN=C1C[C@@H](O)[C@@H](O)[C@@H]2[C@@H]3C(=O)N(C[C@@H]4CCCO4)C(=O)[C@@H]3CC[C@H]12
0.488

What do you have for C#CCCCON=C1[C@H]2CCn3c(=O)n([C@@H](CC)c4ccccc4)c(=O)n3[C@H]2[C@H](O)[C@@H]2O[C@H]12 ?
6.03

More entries:
Give its z-score value. Item: O=C1[C@H]2[C@H]3[C@H](O)[C@H](O)CC(=NOCc4ccccc4)[C@@H]3CC[C@H]2C(=O)N1c1cccc(Oc2ccccc2)c1
-0.055

Would you mind doing CC(=O)OC[C@H]1O[C@@H](ON=C(C)CCC(=O)OC[C@H]2O[C@H](C#Cc3ccccc3)C=C[C@@H]2Oc2ccc(C)cc2)[C@H](OC(C)=O)[C@@H](OC(C)=O)[C@@H]1OC(C)=O as well?
-0.188

And what about the compound CC(C)CON=C1C[C@@H](O)[C@@H](O)[C@@H]2[C@@H]3C(=O)N(Cc4ccc5c(c4)OCO5)C(=O)[C@@H]3CC[C@@H]12 ?
0.0483

Try this compound next: COC(=O)[C@H](C)NC(=O)CCC1CC(OC(=O)NCc2ccc3c(c2)OCO3)CC2(CCCC(COC(=O)NCc3ccccc3)O2)O1 (stereo partly drawn)
-0.66

And what about the compound O=C(NN=C1C[C@@H](O)[C@@H](O)[C@@H]2[C@@H]3C(=O)N(Cc4ccc5c(c4)OCO5)C(=O)[C@@H]3CC[C@@H]12)OCc1ccccc1 ?
-1.41

---

Assay: binders of probe aFSTL3 on microarray, primary screen, stem cell growth factor project, biochemical, small-molecule microarray, fluorescence 635/667 (AID 1064);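 also: measures binding of the biotinylated anti-FSTL3 antibody to printed compounds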
Settings: higher = more signal
Each entry below carries its recorded composite z-score.
Just the number, please.

What value of composite z-score has been reported for the following compound? COC(=O)[C@@H]1CC[C@H](C)[C@@H](c2ccc(Br)cc2)N1C[C@H](O)CN=[N+]=[N-]
-0.0566

***
Fill in: composite z-score of O=C1C[C@H](c2ccccc2)[C@H](c2ccc(Br)cc2)O1 is ___
-0.295

---

Test: small-molecule microarray binders of probe aShh, primary screen, biochemical, biotinylated probe, 635/667 nm fluorescence (AID 1114);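 also: probe is biotin-labelled aShh protein from a stem cell growth factor screen; measures binding of labelled protein to compounds printed on the slide; score merges feature fluorescence at 667 nm with signal-to-noise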
Conditions: higher = more signal
Returns one of Condition met or Condition not met; Condition met when composite z-score is >= -0.2.

The examples below pair each entry with its known result.
Reported composite z-score at or above -0.2? O=C(NCCC[N+]1=CC=NC1c1ccccc1)N1CCCc2nc(-c3ccc(Br)cc3)ccc21 (stereo unspecified)
Condition met

Query CCN1C(=O)[C@H]2[C@H]3[C@H](O)[C@H](O)CC(=NO[C@@H]4O[C@H](COC(C)=O)[C@@H](OC(C)=O)[C@H](OC(C)=O)[C@H]4OC(C)=O)[C@@H]3CC[C@H]2C1=O next
Condition met

And for CCc1cc2c(nc1CC)CCN(CCC(C)=NO[C@@H]1O[C@H](COC(C)=O)[C@@H](OC(C)=O)[C@H](OC(C)=O)[C@H]1OC(C)=O)C2 ?
Condition not met

Please find the next molecule below.
Entry COC(=O)[C@@H]1CC[C@H](C)[C@@H](c2ccc(Br)cc2)N1C(=O)C(F)(F)F : is its composite z-score no less than -0.2?
Condition not met

Measured values drawn from PubChem BioAssay for this set.
